Origin of measurements: the NIST ThermoML archive (doi:10.1016/j.fluid.2013.03.029)

Recorded mass density for the following molecules
- EXPERIMENTAL_PARAMETERS: 293.15 K; 101.33 kPa; Liquid; Vibrating tube method
READOUT_KIND: mass density (kg/m3)

>>> recorded_measurement("CCCCCO")
813.7
>>> recorded_measurement("CCO")
790
>>> recorded_measurement("CC(C)CO")
801.7
>>> recorded_measurement("O")
998.4

====

The reader will find reported refractive index values listed item by item below.
- PROTOCOL: refractive index (Na D-line) (dimensionless)
- EXPERIMENTAL_PARAMETERS: 293.15 K; 101.33 kPa; Liquid; Standard Abbe refractometry
READOUT_KIND: refractive index

>>> recorded_measurement("CCCCCO [pentan-1-ol]")
1.4087
>>> recorded_measurement("CC(C)CO [2-methyl-1-propanol]")
1.3955
>>> recorded_measurement("CCO [ethanol]")
1.3616
>>> recorded_measurement("O [water]")
1.3328

====

- EXPERIMENTAL_PARAMETERS: Liquid; Ebulliometric method (Recirculating still)
Catalogue of Normal boiling temperature values
READOUT_KIND: Normal boiling temperature (°C)

>>> recorded_measurement("CC(C)CO")
107.00
>>> recorded_measurement("CCCCCO")
137.80
>>> recorded_measurement("CCO")
78.40
>>> recorded_measurement("O")
100.1
